Quick reference for Kp at 1.5 h among some compounds
# EXPERIMENT_SUMMARY: Pharmacokinetic measurements in rats (intravenous and intra-tracheal dosing)
# Type: in vivo
# SETUP_CONDITIONS: male, CD, lung/plasma, other: intra-tracheal; rat, i.t. dosing, 1.5 h; read-out: lung/plasma conc ratio at time(h)
Note: the reply should be a number with no unit written.

For orientation, consider the following solved cases.
COMPOUND: COC(=O)c1cc2c(cc1C)/C(=C(/Nc1ccc(C(=O)NOCCN3CCN(CCO)CC3)cc1)c1ccccc1)C(=O)N2 [Example 7]
Kp at 1.5 h: 114

COMPOUND: COC(=O)c1cc2c(cc1C)/C(=C(/Nc1ccc(C(=O)NOCCN3CCN(C)CC3)cc1)c1ccccc1)C(=O)N2 [Example 6]
Kp at 1.5 h: 2890

COMPOUND: COC(=O)c1ccc2c(c1)NC(=O)/C2=C(\Nc1ccc(C(=O)NOCCN2CCN(C)CC2)cc1)c1ccccc1 [Example 4]
Kp at 1.5 h: 1320

COMPOUND: COC(=O)c1ccc2c(c1)NC(=O)/C2=C(\Nc1ccc(C(=O)NOCCN(C)C)cc1)c1ccccc1 [Example 3]
Kp at 1.5 h: 1430

I would be grateful if you could share the reported Kp at 1.5 h for COC(=O)c1ccc2c(c1)NC(=O)/C2=C(\Nc1ccc(S(=O)(=O)NOCCN(C)C)cc1)c1ccccc1 [Example 15] .
884

Next compound: COC(=O)c1cc2c(cc1C)/C(=C(/Nc1ccc(C(=O)NOCCN(C)C)c(C)c1)c1ccccc1)C(=O)N2 [Example 5]
362

---

# EXPERIMENT_SUMMARY: Pharmacokinetic measurements in rats (intravenous and intra-tracheal dosing)
# Format: in vivo
# SETUP_CONDITIONS: male, CD, lung/plasma, other: intra-tracheal; rat, i.t. dosing, 24 h; read-out: lung/plasma conc ratio at time(h)
OBSERVATION_TYPE: Kp at 24 h
Lab note: jot the number down without any unit.

STRUCTURE_STRING: COC(=O)c1cc2c(cc1C)/C(=C(/Nc1ccc(C(=O)NOCCN(C)C)c(C)c1)c1ccccc1)C(=O)N2
Kp at 24 h: 1520
--
STRUCTURE_STRING: COC(=O)c1ccc2c(c1)NC(=O)/C2=C(\Nc1ccc(C(=O)NOCCN(C)C)cc1)c1ccccc1
Kp at 24 h: 503
--
STRUCTURE_STRING: COC(=O)c1cc2c(cc1C)/C(=C(/Nc1ccc(C(=O)NOCCN3CCN(C)CC3)cc1)c1ccccc1)C(=O)N2
Kp at 24 h: 3280

// next item, Kp at 24 h requested
If you can, please state the reported Kp at 24 h value of COC(=O)c1ccc2c(c1)NC(=O)/C2=C(\Nc1ccc(S(=O)(=O)NOCCN(C)C)cc1)c1ccccc1 .
314

---

# EXPERIMENT_SUMMARY: Pharmacokinetic measurements in rats (intravenous and intra-tracheal dosing)
# Format: in vivo
# SETUP_CONDITIONS: male, CD, lung, iv; rat, i.v. dosing, 24 h; read-out: lung concentration (nM) at time (h)
OBSERVATION_TYPE: concentration at 24 h (nM)
Reply numerically in nM, unit not repeated.

STRUCTURE_STRING: COC(=O)c1cc2c(cc1C)/C(=C(/Nc1ccc(C(=O)NOCCN(C)C)c(C)c1)c1ccccc1)C(=O)N2
concentration at 24 h, nM: 52

STRUCTURE_STRING: COC(=O)c1cc2c(cc1C)/C(=C(/Nc1ccc(C(=O)NOCCN3CCN(C)CC3)cc1)c1ccccc1)C(=O)N2
concentration at 24 h, nM: 173

STRUCTURE_STRING: COC(=O)c1ccc2c(c1)NC(=O)/C2=C(\Nc1ccc(C(=O)NOCCN2CCN(C)CC2)cc1)c1ccccc1
concentration at 24 h, nM: 12

STRUCTURE_STRING: COC(=O)c1cc2c(cc1C)/C(=C(/Nc1ccc(C(=O)NOCCN3CCN(CCO)CC3)cc1)c1ccccc1)C(=O)N2
concentration at 24 h, nM: 30

STRUCTURE_STRING: COC(=O)c1ccc2c(c1)NC(=O)/C2=C(\Nc1ccc(S(=O)(=O)NOCCN(C)C)cc1)c1ccccc1
concentration at 24 h, nM: 66

Query: concentration at 24 h; subject: COC(=O)c1ccc2c(c1)NC(=O)/C2=C(\Nc1ccc(C(=O)NOCCN(C)C)cc1)c1ccccc1
28

---

Listing: Kp at 6 h of selected compounds
# EXPERIMENT_SUMMARY: Pharmacokinetic measurements in rats (intravenous and intra-tracheal dosing)
# Type: in vivo
# SETUP_CONDITIONS: male, CD, lung/plasma, iv, 0.1 mg/kg; rat, i.v. dosing, 6 h; read-out: lung/plasma ratio at time(h)
Respond numerically, and do not add a unit to the figure.

STRUCTURE_STRING: COC(=O)c1cc2c(cc1C)/C(=C(/Nc1ccc(C(=O)NOCCN3CCN(CCO)CC3)cc1)c1ccccc1)C(=O)N2
Kp at 6 h: 10

Value lookup for Kp at 6 h; key = COC(=O)c1cc2c(cc1C)/C(=C(/Nc1ccc(C(=O)NOCCN(C)C)c(C)c1)c1ccccc1)C(=O)N2
26

---

# MEASURED_TARGET: PDGFRβ (Homo sapiens (Human), UniProt P09619)
# Sequence (P09619 33-1106): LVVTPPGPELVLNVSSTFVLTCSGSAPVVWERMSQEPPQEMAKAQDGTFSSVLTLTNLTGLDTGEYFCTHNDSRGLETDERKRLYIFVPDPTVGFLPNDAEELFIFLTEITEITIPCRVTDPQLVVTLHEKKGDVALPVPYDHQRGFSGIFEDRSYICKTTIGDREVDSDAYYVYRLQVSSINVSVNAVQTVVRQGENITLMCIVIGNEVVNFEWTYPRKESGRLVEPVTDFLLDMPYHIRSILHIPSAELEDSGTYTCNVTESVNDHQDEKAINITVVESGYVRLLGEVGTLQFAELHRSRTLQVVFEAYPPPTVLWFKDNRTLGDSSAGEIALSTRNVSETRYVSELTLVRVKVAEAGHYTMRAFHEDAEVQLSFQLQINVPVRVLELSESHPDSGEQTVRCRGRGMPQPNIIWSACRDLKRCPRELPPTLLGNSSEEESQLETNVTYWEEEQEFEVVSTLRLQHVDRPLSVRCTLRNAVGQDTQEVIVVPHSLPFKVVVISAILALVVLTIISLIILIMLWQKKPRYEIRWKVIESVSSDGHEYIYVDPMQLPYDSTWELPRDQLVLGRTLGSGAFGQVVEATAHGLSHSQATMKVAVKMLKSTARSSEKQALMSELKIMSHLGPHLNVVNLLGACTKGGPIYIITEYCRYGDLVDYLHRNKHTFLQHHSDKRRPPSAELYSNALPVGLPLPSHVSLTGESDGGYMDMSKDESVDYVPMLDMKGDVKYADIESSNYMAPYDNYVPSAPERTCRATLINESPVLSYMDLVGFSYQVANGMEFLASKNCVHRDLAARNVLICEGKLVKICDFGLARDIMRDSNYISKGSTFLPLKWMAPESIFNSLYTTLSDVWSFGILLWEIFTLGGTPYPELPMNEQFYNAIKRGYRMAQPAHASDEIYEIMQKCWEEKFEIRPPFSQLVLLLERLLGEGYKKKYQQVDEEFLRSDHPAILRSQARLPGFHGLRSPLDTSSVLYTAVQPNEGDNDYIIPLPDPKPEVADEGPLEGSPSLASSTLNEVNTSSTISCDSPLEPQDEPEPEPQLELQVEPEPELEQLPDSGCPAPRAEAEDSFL
# EXPERIMENT_SUMMARY: PDGF-BB induced phosphorylation of PDGFRβ in fibroblasts (MRC5 cells, HTRF)
# Format: cell-based
# SETUP_CONDITIONS: MRC5 cells; n = 1 unless otherwise indicated; read-out: PDGFBB-induced PDGFRβ phosphorylation in MRC5 cells (IC50)
Form field: pIC50 (one value per entry).
Kindly note that pIC50 refers to -log10 of the concentration in mol/L and answer with the value alone.

STRUCTURE_STRING: COC(=O)c1ccc2c(c1)NC(=O)/C2=C(\Nc1ccc(C(=O)NOCCN2CCC(N(C)C)CC2)cc1)c1ccccc1
pIC50: 7.41

Bench note: what pIC50 did COC(=O)c1cc2c(cc1C)/C(=C(/Nc1ccc(C(=O)NOCCN3CCC(OC)CC3)cc1)c1ccccc1)C(=O)N2 show?
7.66

Try this compound too: COCCN1CCN(CCONC(=O)c2ccc(N/C(=C3\C(=O)Nc4cc(C(=O)OC)ccc43)c3ccccc3)cc2)CC1
7.50

---

# EXPERIMENT_SUMMARY: PAMPA permeability assay
# Format: in vitro ADME
# SETUP_CONDITIONS: PAMPA, pH 7, PAMPA, donor and acceptor compartments
Criterion: recovery at 5 hr, 10 μM strictly less than 50%. Met: TRUE. Not met: FALSE.

STRUCTURE_STRING: COC(=O)c1cc2c(cc1C)/C(=C(/Nc1ccc(C(=O)NOCCN(C)C)cc1)c1ccccc1)C(=O)N2
GROUP_LABEL: TRUE
//
STRUCTURE_STRING: COC(=O)c1ccc2c(c1)NC(=O)/C2=C(\Nc1ccc(C(=O)N2CCN(C)CCO2)cc1)c1ccccc1
GROUP_LABEL: FALSE
//
STRUCTURE_STRING: COC(=O)c1cc2c(cc1C)/C(=C(/Nc1ccc(C(=O)NOCCN3CC[C@H](N(C)C)C3)cc1)c1ccccc1)C(=O)N2
GROUP_LABEL: FALSE
//
STRUCTURE_STRING: COC(=O)c1ccc2c(c1)NC(=O)/C2=C(\Nc1ccc(C(=O)NOCCN2CC[C@H](N(C)C)C2)cc1)c1ccccc1
GROUP_LABEL: FALSE
//
STRUCTURE_STRING: COC(=O)c1cc2c(cc1C)/C(=C(/Nc1ccc(S(=O)(=O)N(C)OCCN(C)CCO)cc1)c1ccccc1)C(=O)N2
GROUP_LABEL: FALSE

Turning now to a further molecule:
Quick check: recovery at 5 hr, 10 μM of COC(=O)c1cc2c(cc1C)/C(=C(/Nc1ccc(S(=O)(=O)NOCCN3CCN(C)CC3)cc1)c1ccccc1)C(=O)N2 under 50%?
FALSE

---

Recorded Ki by entry
# MEASURED_TARGET: PDGFRβ (Homo sapiens (Human), UniProt P09619)
# SETUP_CONDITIONS: read-out: Ki PDGFRβ; mean, n = 2 unless otherwise indicated
Answer in nM, number only, no unit symbol.

Below are worked cases with known answers.
COMPOUND: CCN1CCN(CCONC(=O)c2ccc(N/C(=C3\C(=O)Nc4cc(C(=O)OC)c(C)cc43)c3ccccc3)cc2)CC1 [Example 36]
DATA_VALUE: 8.46

COMPOUND: COC(=O)c1cc2c(cc1C)/C(=C(/Nc1ccc(C(=O)N(C)OCCN3CCN(CCO)CC3)cc1)c1ccccc1)C(=O)N2 [Example 58]
DATA_VALUE: 8.87

COMPOUND: COC(=O)c1ccc2c(c1)NC(=O)/C2=C(\Nc1ccc(S(=O)(=O)NOCCN(C)C)cc1)c1ccccc1 [Example 15]
DATA_VALUE: 21.7

Consider the compound shown here: COC(=O)c1ccc2c(c1)NC(=O)/C2=C(\Nc1ccc(C(=O)N(CCN(C)C)OC)cc1)c1ccccc1 [Example 23] What is its recorded Ki?
12.2
